The reader will find reported inhibition values listed item by item below.
Target: Neuropilin-1 (Homo sapiens) (UniProt O14786)
Sequence (O14786 whole entry, looked up): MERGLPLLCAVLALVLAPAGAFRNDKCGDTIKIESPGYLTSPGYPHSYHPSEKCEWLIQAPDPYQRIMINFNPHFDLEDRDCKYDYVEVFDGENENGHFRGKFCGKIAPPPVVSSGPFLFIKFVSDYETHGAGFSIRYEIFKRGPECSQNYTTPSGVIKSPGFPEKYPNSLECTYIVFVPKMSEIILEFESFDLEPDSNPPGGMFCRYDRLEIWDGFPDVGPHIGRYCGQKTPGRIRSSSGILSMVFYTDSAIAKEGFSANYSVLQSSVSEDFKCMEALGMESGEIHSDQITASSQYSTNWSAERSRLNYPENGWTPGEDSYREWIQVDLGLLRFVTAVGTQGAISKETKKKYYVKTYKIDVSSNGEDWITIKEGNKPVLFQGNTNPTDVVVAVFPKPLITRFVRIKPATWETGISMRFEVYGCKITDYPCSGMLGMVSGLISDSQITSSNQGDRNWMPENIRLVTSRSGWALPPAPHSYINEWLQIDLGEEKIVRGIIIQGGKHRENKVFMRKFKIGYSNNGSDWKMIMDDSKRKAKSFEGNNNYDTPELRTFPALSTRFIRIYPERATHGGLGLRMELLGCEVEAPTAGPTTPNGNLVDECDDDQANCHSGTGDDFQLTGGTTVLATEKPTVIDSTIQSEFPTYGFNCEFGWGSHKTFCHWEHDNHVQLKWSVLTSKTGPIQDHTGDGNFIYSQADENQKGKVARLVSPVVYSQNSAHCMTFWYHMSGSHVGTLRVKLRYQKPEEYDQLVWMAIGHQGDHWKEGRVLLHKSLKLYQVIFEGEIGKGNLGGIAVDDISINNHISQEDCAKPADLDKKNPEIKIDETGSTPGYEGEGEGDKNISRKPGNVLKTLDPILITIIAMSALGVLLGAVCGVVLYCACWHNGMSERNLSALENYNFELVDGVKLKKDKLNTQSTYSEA
Assay: blockers of CendR peptide binding to NRP-1 – biochemical, FP and AlphaScreen panel, dose response (AID 651650)
Details: NRP-1 b1b2 / RPARPAR peptide binding, FP or AlphaScreen; run 1, at 100 µM (top of the series)
Answer format: numeric, % implied, no suffix.

Some solved entries appear below for comparison.
1) CC(=O)C(=Cc1ccc(Cl)cc1)C(=O)c1ccccc1 | 27.1
2) CCc1ccc(NS(=O)(=O)c2c(C(=O)N3CCCCCC3)c(C)n(C)c2C)cc1 | 31.1
3) CCCS(=O)(=O)N1CCC(Cc2ccc(OC)cc2)(C(=O)OCC)CC1 | -57.8

Below: the item to evaluate.
GET /value?item= O=C(O)CCCC(=O)N1CCc2cc(S(=O)(=O)N3CCc4ccccc43)ccc21 &field=inhibition returns -2.42

----------
Target: Neuropilin-1 (Homo sapiens) (UniProt O14786)
Assay: blockers of CendR peptide binding to NRP-1 – biochemical, FP and AlphaScreen panel, dose response (AID 651650)
Details: NRP-1 b1b2 / RPARPAR peptide binding, FP or AlphaScreen; run 1, at 100 µM (top of the series)
readout.name: inhibition (%)
Answer format: numeric, % implied, no suffix.

1) C[C@@H](C(=O)Nc1cccnc1)n1c(=O)[nH]c2ccccc2c1=O | 44.7

GET /value?item= CCOC(=O)C1=C(C)NC2=C(C(=O)CCC2)C1c1cn(Cc2ccc(Cl)cc2Cl)nc1-c1ccccc1 (stereo not given) &field=inhibition returns 72.6

GET /value?item= COc1ccc(C(=O)COC(=O)C(CCSC)NS(=O)(=O)c2ccc(Cl)cc2)cc1 (stereo not given) &field=inhibition returns -2.36

GET /value?item= COc1ccc(-c2csc(NC(CO)c3nc4ccccc4n3CCCO)n2)cc1 (stereo not given) &field=inhibition returns 41.5

GET /value?item= CCCNC(=S)Nc1cccc(C(F)(F)F)c1 &field=inhibition returns -8.06

GET /value?item= O=C(NCCCN1CCCCCC1)c1ccc(CS(=O)(=O)Cc2ccccc2F)o1 &field=inhibition returns 40.3

GET /value?item= CCOC(=O)C1CCN(S(=O)(=O)c2ccc3c(c2)CCN3C(=O)C2CCC2)CC1 &field=inhibition returns 6.43

GET /value?item= COC/C=C/C1=CC2=CC(=O)C(C)(OC(=O)c3cnc4ccccc4n3)C(=O)C2=CN1Cc1ccc(OC)cc1 (stereo not given) &field=inhibition returns 66.7

GET /value?item= CCOc1cc(C(=O)NCCN2CCOCC2)cc(OCC)c1OCC &field=inhibition returns 23.9

GET /value?item= CCOc1ccc(/C=C2/Sc3ccc(C(=O)NCC4CCCO4)cc3N(C)C2=O)cc1OC (stereo not given) &field=inhibition returns 77.7

----------
Target: Neuropilin-1 (Homo sapiens) (UniProt O14786)
Experiment: blockers of CendR peptide binding to NRP-1 – biochemical, FP and AlphaScreen panel, dose response (AID 651650)
Conditions: NRP-1 b1b2 / RPARPAR peptide binding, FP or AlphaScreen; run 1, at 100 µM (top of the series)
readout.name: inhibition (%)
Answer format: numeric, % implied, no suffix.

Some solved entries appear below for comparison.
1) CCOC(=O)c1c2ccc(OCC(=O)NN)cc2n2ccccc12 | -1.02
2) CNC(=O)NC(=O)C(C)OC(=O)c1c(C)noc1C (configuration not stated) | 49.1
3) COc1cc(Cn2nnc3ccccc32)cc(Br)c1O | 37.3
4) CCO[C@@H]1OC(C(=O)NCc2ccccc2)=C[C@H](c2ccc(Br)cc2)[C@H]1CCCO | 102
5) CCC1=C(OC(=O)N(CC)CC)N2C(=O)OC(=NCCOC)[C@]2(Cc2ccccc2)[C@H]2C1=CC[C@H]1C(=O)N(CC(=O)OC)C(=O)[C@H]12 | 56.3

Record Cc1ccsc1C(=O)N1CCCC(CO)(Cc2ccccc2F)C1 (configuration not stated) ; system Neuropilin-1 (Homo sapiens) (UniProt O14786); inhibition = 17.8

Record O=C(c1ccc(-c2cccc(Cl)c2)o1)N1CCN(c2ccc([N+](=O)[O-])cc2)CC1 ; system Neuropilin-1 (Homo sapiens) (UniProt O14786); inhibition = 21.7

Record Cc1cc(C)cc(N(CCC(=O)O)S(=O)(=O)c2ccc3ccccc3c2)c1 ; system Neuropilin-1 (Homo sapiens) (UniProt O14786); inhibition = 38.7

Record CC(=NN(Cc1ccccc1)c1ccccc1)c1ccccc1 ; system Neuropilin-1 (Homo sapiens) (UniProt O14786); inhibition = 87.9

Record O=C(c1cccc(F)c1)N1CCN(c2ccc([N+](=O)[O-])c(N3CCCCC3)c2)CC1 ; system Neuropilin-1 (Homo sapiens) (UniProt O14786); inhibition = 33.3

Record O=C(O)CCSc1nnc(COc2cccc3cccnc23)n1-c1ccccc1 ; system Neuropilin-1 (Homo sapiens) (UniProt O14786); inhibition = 52.3

Record Cc1cc2c(cc1C)NC(c1nc3ccccc3[nH]1)C1=C(CC(C)(C)CC1=O)N2 (configuration not stated) ; system Neuropilin-1 (Homo sapiens) (UniProt O14786); inhibition = 20.6

Record Cc1ccccc1Nc1nc(N)nc(COC(=O)CC2CC3CCC2C3)n1 (configuration not stated) ; system Neuropilin-1 (Homo sapiens) (UniProt O14786); inhibition = 3.37

Record COC(=O)c1ccccc1NC(=O)CSc1nc(C)cc(C)n1 ; system Neuropilin-1 (Homo sapiens) (UniProt O14786); inhibition = 45.7

Record O=C(COC(=O)C1CC(=O)N(Cc2ccccc2)C1)Nc1ccccc1F (configuration not stated) ; system Neuropilin-1 (Homo sapiens) (UniProt O14786); inhibition = 56.9

Record O=C(CCn1c(=O)c2cccn2c2cccnc21)NCc1cccc(Cl)c1 ; system Neuropilin-1 (Homo sapiens) (UniProt O14786); inhibition = 5.81

Record CC(=O)c1cccc(S(=O)(=O)N2CCC(C(=O)O)(c3ccccc3)CC2)c1 ; system Neuropilin-1 (Homo sapiens) (UniProt O14786); inhibition = 49.1
